target: Transient receptor potential cation channel subfamily V member 1 (Homo sapiens, UniProt Q8NER1); assay: Antagonist activity at human TRPV1 expressed in CHOK1 cells assessed as inhibition of capsaicin induced calcium influx pretreated for 6 mins followed by capsaicin addition by Fluo-4/Pluronic F127 probe based FLIPR method
Sequence (Q8NER1 whole entry): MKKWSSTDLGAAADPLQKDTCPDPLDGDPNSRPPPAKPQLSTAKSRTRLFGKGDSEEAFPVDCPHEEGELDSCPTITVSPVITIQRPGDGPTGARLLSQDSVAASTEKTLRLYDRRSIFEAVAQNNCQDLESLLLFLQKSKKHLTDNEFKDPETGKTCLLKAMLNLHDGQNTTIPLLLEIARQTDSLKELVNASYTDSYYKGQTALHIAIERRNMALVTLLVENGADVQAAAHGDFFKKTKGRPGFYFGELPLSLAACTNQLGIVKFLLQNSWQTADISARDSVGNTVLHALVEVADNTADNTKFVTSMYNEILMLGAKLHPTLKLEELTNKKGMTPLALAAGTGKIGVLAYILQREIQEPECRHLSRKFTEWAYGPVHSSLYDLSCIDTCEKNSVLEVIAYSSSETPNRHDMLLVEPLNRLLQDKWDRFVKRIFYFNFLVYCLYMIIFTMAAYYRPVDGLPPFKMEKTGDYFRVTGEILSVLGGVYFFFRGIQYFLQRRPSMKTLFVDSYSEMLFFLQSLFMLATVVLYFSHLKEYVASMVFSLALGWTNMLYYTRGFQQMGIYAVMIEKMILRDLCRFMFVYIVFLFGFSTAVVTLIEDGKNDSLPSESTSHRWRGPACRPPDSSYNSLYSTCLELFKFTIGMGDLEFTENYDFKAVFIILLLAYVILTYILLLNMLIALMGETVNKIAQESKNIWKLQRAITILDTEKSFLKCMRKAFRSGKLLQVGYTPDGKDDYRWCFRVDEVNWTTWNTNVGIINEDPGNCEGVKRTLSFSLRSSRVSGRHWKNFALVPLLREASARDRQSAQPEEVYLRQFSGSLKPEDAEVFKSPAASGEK
# Ki listing for each entry below
# unit: nM | format: bare number

Query block: # lookup: Ki of CC(C)CCSc1nc(C(C)(C)C)ccc1CNC(=O)C(C)c1ccc(NS(C)(=O)=O)c(F)c1 (centres undefined)
Result block: 5.9

Query block: And COc1cccc(COc2nc(C(C)(C)C)ccc2CNC(=O)C(C)c2ccc(NS(C)(=O)=O)c(F)c2)c1 (centres undefined) ?
Result block: 6

###

molecular target: Transient receptor potential cation channel subfamily V member 1 (Homo sapiens, UniProt Q8NER1); experiment: Antagonist activity at human TRPV1 expressed in CHOK1 cells assessed as inhibition of capsaicin induced calcium influx pretreated for 6 mins followed by capsaicin addition by Fluo-4/Pluronic F127 probe based FLIPR method
// NB: equality with 3 nM counts as F; only Ki strictly below is T

>  <Molecule>
CC(C(=O)NCc1ccc(C(C)(C)C)cc1N1CCCC1)c1ccc(NS(C)(=O)=O)c(F)c1 (configuration not stated)

>  <Label value>
F

$$$$
>  <Molecule>
CC(C(=O)NCc1ccc(C(C)(C)C)nc1OCc1ccc(F)cc1)c1ccc(NS(C)(=O)=O)c(F)c1 (configuration not stated)

>  <Label value>
T

$$$$
>  <Molecule>
CC(C(=O)NCc1ccc(C(C)(C)C)cc1C1CCCCC1)c1ccc(NS(C)(=O)=O)c(F)c1 (configuration not stated)

>  <Label value>
F

$$$$

Query block: Quick check: Ki of CC(C(=O)NCc1ccc(C(C)(C)C)nc1SC1CCCC1)c1ccc(NS(C)(=O)=O)c(F)c1 (configuration not stated) under 3 nM?
Result block: T

Query block: And CC(C(=O)NCc1ccc(C(C)(C)C)cc1SC1CCCCC1)c1ccc(NS(C)(=O)=O)c(F)c1 (configuration not stated) ?
Result block: F

Query block: And CC1CCN(c2cc(C(C)(C)C)ccc2CNC(=O)C(C)c2ccc(NS(C)(=O)=O)c(F)c2)CC1 (configuration not stated) ?
Result block: T

Query block: And CCCCCCSc1nc(C(C)(C)C)ccc1CNC(=O)C(C)c1ccc(NS(C)(=O)=O)c(F)c1 (configuration not stated) ?
Result block: T

###

target: Transient receptor potential cation channel subfamily V member 1 (Homo sapiens, UniProt Q8NER1); assay: Antagonist activity at human TRPV1 expressed in CHOK1 cells assessed as inhibition of capsaicin induced calcium influx pretreated for 6 mins followed by capsaicin addition by Fluo-4/Pluronic F127 probe based FLIPR method
// NB: equality with 4 nM counts as Condition not met; only Ki strictly below is Condition met

Known results for compounds:
>  <Compound>
CC(C(=O)NCc1ccc(C(C)(C)C)cc1N1CCN(c2ccccc2)CC1)c1ccc(NS(C)(=O)=O)c(F)c1 (stereo not drawn)

>  <Label value>
Condition met

$$$$
>  <Compound>
CC(C(=O)NCc1ccc(C(C)(C)C)nc1C1CCCCC1)c1ccc(NS(C)(=O)=O)c(F)c1 (stereo not drawn)

>  <Label value>
Condition met

$$$$
>  <Compound>
CCCCCc1cc(C(C)(C)C)ccc1CNC(=O)C(C)c1ccc(NS(C)(=O)=O)c(F)c1 (stereo not drawn)

>  <Label value>
Condition met

$$$$

Query block: Quick check: Ki of CC(C(=O)NCc1ccc(C(C)(C)C)nc1SCCCN(C)C)c1ccc(NS(C)(=O)=O)c(F)c1 (stereo not drawn) under 4 nM?
Result block: Condition not met

Query block: And CC(C(=O)NCc1ccc(C(C)(C)C)nc1SCc1ccccc1Cl)c1ccc(NS(C)(=O)=O)c(F)c1 (stereo not drawn) ?
Result block: Condition met

Query block: And CCCOc1cc(C(C)(C)C)ccc1CNC(=O)C(C)c1ccc(NS(C)(=O)=O)c(F)c1 (stereo not drawn) ?
Result block: Condition not met

Query block: And CC(C(=O)NCc1ccc(C(C)(C)C)nc1-c1ccc(F)cc1)c1ccc(NS(C)(=O)=O)c(F)c1 (stereo not drawn) ?
Result block: Condition met

###

target: UniProt Q8NER1; test: Antagonist activity at human TRPV1 expressed in CHOK1 cells assessed as inhibition of capsaicin induced calcium influx pretreated for 6 mins followed by capsaicin addition by Fluo-4/Pluronic F127 probe based FLIPR method; assay type: cell-based
Measure name: Ki

Sample answers from the record:
>  <Molecule>
CC(C(=O)NCc1ccc(C(C)(C)C)nc1SCc1ccc(Cl)cc1)c1ccc(NS(C)(=O)=O)c(F)c1 (stereo not drawn)

>  <Ki>
3.4 nM

$$$$
>  <Molecule>
CC(C(=O)NCc1ccc(C(C)(C)C)nc1N1CCCCC1)c1ccc(NS(C)(=O)=O)c(F)c1 (stereo not drawn)

>  <Ki>
1.1 nM

$$$$
>  <Molecule>
C[C@H](C(=O)NCc1ccc(C(C)(C)C)nc1SC1CCCCC1)c1ccc(NS(C)(=O)=O)c(F)c1

>  <Ki>
3.4 nM

$$$$

Here is another molecule to look at.
Query block: # lookup: Ki of CCCCN(C)c1nc(C(C)(C)C)ccc1CNC(=O)C(C)c1ccc(NS(C)(=O)=O)c(F)c1 (stereo not drawn)
Result block: 1.2 nM

###

target: Transient receptor potential cation channel subfamily V member 1 (Homo sapiens, UniProt Q8NER1); assay: Antagonist activity at human TRPV1 expressed in CHOK1 cells assessed as inhibition of capsaicin induced calcium influx pretreated for 6 mins followed by capsaicin addition by Fluo-4/Pluronic F127 probe based FLIPR method
// NB: equality with 2 nM counts as rule not met; only Ki strictly below is rule met

Known results for compounds:
>  <Compound>
CC(C)CCOc1cc(C(C)(C)C)ccc1CNC(=O)C(C)c1ccc(NS(C)(=O)=O)c(F)c1 (configuration not stated)

>  <Label value>
rule met

$$$$
>  <Compound>
CCCCSc1nc(C(C)(C)C)ccc1CNC(=O)C(C)c1ccc(NS(C)(=O)=O)c(F)c1 (configuration not stated)

>  <Label value>
rule not met

$$$$
>  <Compound>
CCCCCCOc1cc(C(C)(C)C)ccc1CNC(=O)C(C)c1ccc(NS(C)(=O)=O)c(F)c1 (configuration not stated)

>  <Label value>
rule met

$$$$

Query block: Quick check: Ki of CCC1CCN(c2nc(C(C)(C)C)ccc2CNC(=O)C(C)c2ccc(NS(C)(=O)=O)c(F)c2)CC1 (configuration not stated) under 2 nM?
Result block: rule met

Query block: And CC(C(=O)NCc1ccc(C(C)(C)C)nc1SCCCN1CCCC1)c1ccc(NS(C)(=O)=O)c(F)c1 (configuration not stated) ?
Result block: rule not met

Query block: And CC(C(=O)NCc1ccc(C(C)(C)C)cc1OCc1ccc(F)cc1)c1ccc(NS(C)(=O)=O)c(F)c1 (configuration not stated) ?
Result block: rule not met

Query block: And CC(C(=O)NCc1ccc(C(C)(C)C)cc1N1CCCCC1)c1ccc(NS(C)(=O)=O)c(F)c1 (configuration not stated) ?
Result block: rule met

###

# Ki listing for each entry below
target: Transient receptor potential cation channel subfamily V member 1 (Homo sapiens); assay: Antagonist activity at human TRPV1 expressed in CHOK1 cells assessed as inhibition of capsaicin induced calcium influx pretreated for 6 mins followed by capsaicin addition by Fluo-4/Pluronic F127 probe based FLIPR method; format: cell-based
# unit: nM | format: bare number

>  <Molecule>
COc1ccc(CSc2nc(C(C)(C)C)ccc2CNC(=O)C(C)c2ccc(NS(C)(=O)=O)c(F)c2)cc1 (stereo not given)

>  <Target of assay>
Transient receptor potential cation channel subfamily V member 1 (Homo sapiens)

>  <Measure name>
Ki

>  <Unit info>
nM

>  <Observed>
3.5

$$$$
>  <Molecule>
CC(C(=O)NCc1ccc(C(C)(C)C)nc1N1CCC(Cc2ccccc2)CC1)c1ccc(NS(C)(=O)=O)c(F)c1 (stereo not given)

>  <Target of assay>
Transient receptor potential cation channel subfamily V member 1 (Homo sapiens)

>  <Measure name>
Ki

>  <Unit info>
nM

>  <Observed>
0.3

$$$$
>  <Molecule>
CC(C(=O)NCc1ccc(C(C)(C)C)cc1N1CCCCCC1)c1ccc(NS(C)(=O)=O)c(F)c1 (stereo not given)

>  <Target of assay>
Transient receptor potential cation channel subfamily V member 1 (Homo sapiens)

>  <Measure name>
Ki

>  <Unit info>
nM

>  <Observed>
6.2

$$$$
>  <Molecule>
CCCCCSc1nc(C(C)(C)C)ccc1CNC(=O)C(C)c1ccc(NS(C)(=O)=O)c(F)c1 (stereo not given)

>  <Target of assay>
Transient receptor potential cation channel subfamily V member 1 (Homo sapiens)

>  <Measure name>
Ki

>  <Unit info>
nM

>  <Observed>
3.1

$$$$

Query block: # lookup: Ki of C[C@@H](C(=O)NCc1ccc(C(C)(C)C)cc1SC1CCCCC1)c1ccc(NS(C)(=O)=O)c(F)c1
Result block: 89.2

Query block: And CC(C(=O)NCc1ccc(C(C)(C)C)nc1SC1CCCCC1)c1ccc(NS(C)(=O)=O)c(F)c1 (stereo not given) ?
Result block: 8.5

Query block: And CCCCN(C)c1cc(C(C)(C)C)ccc1CNC(=O)C(C)c1ccc(NS(C)(=O)=O)c(F)c1 (stereo not given) ?
Result block: 1

Query block: And C[C@@H](C(=O)NCc1ccc(C(C)(C)C)nc1SC1CCCCC1)c1ccc(NS(C)(=O)=O)c(F)c1 ?
Result block: 36.4

Query block: And CC(C(=O)NCc1ccc(C(C)(C)C)nc1SCCCN1CCOCC1)c1ccc(NS(C)(=O)=O)c(F)c1 (stereo not given) ?
Result block: 112

Query block: And CC(C(=O)NCc1ccc(C(C)(C)C)nc1SCC(F)(F)F)c1ccc(NS(C)(=O)=O)c(F)c1 (stereo not given) ?
Result block: 4.1
